- STUDY TARGET: C1s from human plasma, activated, two-chain form (Homo sapiens)
- Sequence (P09871 16-437 partner limits assumed): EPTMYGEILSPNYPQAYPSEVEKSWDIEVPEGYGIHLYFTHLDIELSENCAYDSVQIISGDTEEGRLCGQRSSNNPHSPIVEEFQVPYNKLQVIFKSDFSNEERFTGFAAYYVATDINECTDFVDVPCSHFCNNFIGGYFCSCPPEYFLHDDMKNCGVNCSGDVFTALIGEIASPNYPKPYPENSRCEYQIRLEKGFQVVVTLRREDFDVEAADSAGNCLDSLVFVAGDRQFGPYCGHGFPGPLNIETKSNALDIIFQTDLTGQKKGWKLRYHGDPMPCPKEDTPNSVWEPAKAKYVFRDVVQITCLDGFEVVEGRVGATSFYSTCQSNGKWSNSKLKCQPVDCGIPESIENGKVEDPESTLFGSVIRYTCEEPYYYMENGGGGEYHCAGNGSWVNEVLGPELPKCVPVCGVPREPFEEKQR
- Sequence (P09871 438-688 limits assumed): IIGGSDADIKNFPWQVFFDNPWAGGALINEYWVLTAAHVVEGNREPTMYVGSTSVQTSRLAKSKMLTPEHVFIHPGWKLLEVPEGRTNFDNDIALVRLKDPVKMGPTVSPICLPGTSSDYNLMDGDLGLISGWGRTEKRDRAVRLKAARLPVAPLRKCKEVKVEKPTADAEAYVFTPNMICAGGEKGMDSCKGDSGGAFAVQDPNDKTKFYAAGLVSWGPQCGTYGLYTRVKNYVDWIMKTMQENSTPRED
- ASSAY: Color substrate test for C1s inhibition (Example B)
- MEASUREMENT SETUP: amidolytic C1s activity, substrate Cbz-Gly-Arg-S-Bzl; read-out: C1S IC50 according to Example B
pIC50: −log10 of the molar value. Where a name gives a salt, the structure may show the parent alone.
Entries annotated with measured pIC50

# MOLECULE, pIC50
measured = [
    ("N=C(N)c1ccc(CNC(=O)[C@@H]2C=CCN2C(=O)[C@@H](CC2CCCCC2)NS(=O)(=O)Cc2ccc(N)cc2)cn1", 6.00),
    ("N=C(N)c1ccc(CNC(=O)[C@@H]2C=CCN2C(=O)CN(Cc2ccccc2)Cc2ccccc2)cn1", 4.70),
    ("N=C(N)c1csc(CNC(=O)[C@@H]2C=CCN2C(=O)C(NCC(=O)O)C2CCCC2)c1 (stereo partly drawn)", 6.00),
    ("CC(C)[C@@H](N)C(=O)N1CCC[C@H]1C(=O)NCc1ccc(C(=N)N)cc1 [Example 5, H-(D)Val-Pro-NH-p-amb.2HCl]", 5.00),
    ("N=C(N)c1csc(CNC(=O)[C@@H]2CC3CCCCC3N2C(=O)[C@H](NCC(=O)O)C2CCCCC2)c1 (stereo partly drawn)", 4.52),
    ("N=C(N)c1ccc(CNC(=O)[C@@H]2CCN2C(=O)[C@H](NCC(=O)O)C2CCCCC2)s1", 5.00),
    ("N=C(N)c1csc(CNC(=O)[C@@H]2C=CCN2C(=O)C(NCC(=O)O)C2CCCCCC2)c1 (stereo partly drawn)", 5.70),
    ("N=C(N)c1coc(CNC(=O)[C@@H]2C=CCN2C(=O)[C@@H](CC2CCCCC2)NCC(=O)O)c1", 5.52),
    ("N=C(N)c1ccc(CNC(=O)[C@@H]2C=CCN2C(=O)[C@@H](CC2CCCCC2)NS(=O)(=O)Cc2ccccc2)cn1", 5.70),
    ("N=C(N)c1ccc(CNC(=O)[C@@H]2CCCN2C(=O)[C@H](NCCCCC(=O)O)C2CCCCC2)cn1", 5.70),
    ("N=C(N)c1csc(CNC(=O)C2SCCN2C(=O)[C@H](NCC(=O)O)C2CCCCC2)c1 (stereo partly drawn)", 4.70),
    ("N=C(N)c1ccc(CNC(=O)[C@@H]2C=CCN2C(=O)[C@H](NS(=O)(=O)Cc2ccc(N)cc2)C2CCCCC2)cn1", 6.10),
    ("CS(=O)(=O)N[C@H](CC1CCCCC1)C(=O)N1CC=C[C@H]1C(=O)NCc1ccc(C(=N)N)cc1", 5.52),
    ("N=C(N)c1ccc(CNC(=O)[C@@H]2C=CCN2C(=O)[C@@H](CC2CCCCC2)NCC(=O)O)s1", 4.52),
    ("N=C(N)c1ccc(CNC(=O)[C@@H]2CCCN2C(=O)[C@@H](Cc2ccccc2)NS(=O)(=O)c2cccnc2)cc1", 4.52),
    ("N=C(N)c1csc(CNC(=O)C2C=CCN2C(=O)C(NCC(=O)O)C2CCCCC2)c1Cl (stereo not drawn)", 6.00),
    ("N=C(N)c1csc(CNC(=O)[C@@H]2C=CCN2C(=O)[C@@H](CC2CCCCC2)NCC(=O)O)c1", 5.30),
    ("N=C(N)c1ccc(CNC(=O)[C@@H]2CCCN2C(=O)[C@@H](Cc2ccccc2)NS(=O)(=O)CC(F)(F)F)cc1", 5.22),
    ("CC(C)(C)OC(=O)CCCN[C@@H](C(=O)N1CCC[C@H]1C(=O)NCc1ccc(C(=N)N)nc1)C1CCCCC1", 4.70),
    ("COC(=O)CS(=O)(=O)N[C@@H](C(=O)N1CCC[C@H]1C(=O)NCc1ccc(C(=N)N)nc1)C1CCCCC1", 5.40),
    ("N=C(N)c1ccc(CNC(=O)[C@@H]2C=CCN2C(=O)[C@H](NCC(=O)O)C2CCCCC2)cn1", 5.15),
    ("N=C(N)c1ccc(CNC(=O)[C@@H]2CSCN2C(=O)[C@@H](CC2CCCCC2)NCC(=O)O)s1", 4.40),
    ("N=C(N)c1csc(CNC(=O)C2C=CCN2C(=O)C(CC2CCCCC2)NCC(=O)O)c1Cl (stereo not drawn)", 5.52),
    ("CC(C)(C)OC(=O)Nc1ccc(CS(=O)(=O)N[C@H](CC2CCCCC2)C(=O)N2CC=C[C@H]2C(=O)NCc2ccc(C(=N)N)nc2)cc1", 5.70),
    ("N=C(N)c1ccc(CNC(=O)[C@@H]2CCCN2C(=O)[C@H](NCCCCCC(=O)O)C2CCCCC2)cn1", 6.10),
    ("N=C(N)c1ccc(CNC(=O)[C@@H]2CCCN2C(=O)[C@@H](Cc2ccccc2)NCCCS(=O)(=O)O)cc1 [Example 12, HO3S—(CH2)3-(D)Phe-Pro-NH-p-amb.HCl]", 4.52),
    ("N=C(N)c1csc(CNC(=O)[C@@H]2CCCN2C(=O)[C@H](NCC(=O)O)C2CCCCC2)c1", 5.00),
]
